target: Endothelin receptor type B (Sus scrofa); assay: Inhibition of [125I]ET1 binding to porcine kidney inner medulla membrane Endothelin B receptor
measurement.name: log10(IC50) (log10 of the value in nM)
Record value = log10 of IC50 given in nM.

The molecule CCCOc1ccc2c(c1)c(-c1ccc3c(c1)OCO3)c(C(=O)O)n2Cc1ccc2c(c1)OCO2 showed log10(IC50) equal to 3.20

The molecule COc1ccc(-c2c(C(=O)O)c(=O)n(Cc3ccc4nsnc4c3)c3c2oc2ccccc23)cc1 showed log10(IC50) equal to 2.48

The molecule CCCOc1ccc2c(c1)c(-c1ccc(OC)cc1)c(C(=O)O)n2Cc1ccc2nsnc2c1 showed log10(IC50) equal to 3.08

The molecule CCCOc1ccc2c(c1)c(-c1ccc3c(c1)OCO3)c(C(=O)O)n2Cc1ccc2nonc2c1 showed log10(IC50) equal to 3.72

The molecule COc1ccc(C2(O)OC(=O)C(c3ccc4nsnc4c3)=C2Cc2cc(OC)c(OC)c(OC)c2)cc1 (configuration not stated) showed log10(IC50) equal to 2.53

Here's the next entry for you.
The molecule COc1ccc(-c2c(C(=O)O)c(=O)n(Cc3ccc4c(c3)OCO4)c3c2oc2ccccc23)cc1 showed log10(IC50) equal to 2.64
